Please respond with reported solubility kinetic for every item in the list.
measurementConditions: buffer; pH 7.4; 200.0 µM
Answers are plain numbers, in µg/mL.

Here are 2 compounds together with their reported answers.
• Cc1nc(NC(=O)c2ccccc2)sc1C = 29.6
• Cc1ccc(S(C)(=O)=O)cc1C(=O)NC(C)C1CC2CCC1C2 (stereo unspecified) = 47.8

Give me solubility kinetic for each of these compounds, listed below.
1. COc1cc(CN2CCSCC2)c([N+](=O)[O-])cc1OC
2. COc1ccccc1OCCNC(=O)c1ccco1
3. Fc1ccc(Nc2nc3ccccc3s2)cc1
4. Cc1ccc(C)c(CN2CCN(c3ncccn3)CC2)c1
5. Cc1nc(-c2ccccn2)nc(SCC(=O)c2ccc(F)cc2)c1Cl
6. CCOC(=O)N1CCc2c(sc3ncn(C)c(=O)c23)C1
7. COc1cc2ccccc2cc1C(=O)Nc1ccc(O)cc1

OUTPUT:
1: 35.2; 2: 33.4; 3: 0.4; 4: 17.4; 5: 2.4; 6: 36.7; 7: 0.8

Give me solubility kinetic for each of these compounds, listed below.
1. Cc1ccccc1NC(=S)N(Cc1ccccc1)Cc1cccs1
2. O=C(Nc1cccc(NC(=O)c2ccccc2F)c1)c1ccccc1
3. Cc1ccc(S(=O)(=O)NCC(=O)Nc2ccc3c(c2)OCO3)cc1
4. Cc1cc(CSCc2ccc(Cl)cc2)no1
5. COc1ccc(C(=O)NC(C)C2CC3CCC2C3)cc1 (stereo unspecified)
6. CCOc1ccc(-c2cnc3n2CCCCC3)cc1
7. COc1cccc(C(=O)NC2CCCc3ccccc32)c1OC (stereo unspecified)

OUTPUT:
1: 0.7; 2: 0.9; 3: 49.4; 4: 2.2; 5: 8.1; 6: 32; 7: 31.6

FYI, the data here is from PubChem BioAssay AID1996.
